src = patent US8497281B2

test_details: Metabolic stability in pooled liver microsomes
Assay type: in vitro ADME, human
condition_set: human, pooled liver microsomes, pH 7.6, human liver microsomes, 37° C., test compound 1 μM, microsomal protein 0.5 mg/mL, NADPH 1 mM; read-out: Stability in human liver microsomes, t1/2
Experimental: The metabolic degradation of the test compound is assayed at 37° C. with pooled liver microsomes from various species. The final incubation volume of 100 μl per time point contains TRIS buffer pH 7.6 at room temperature (0.1 M), magnesium chloride (5 mM), microsomal protein (0.5 mg/mL) and the test compound at a final concentration of 1 μM. […] The half-life is determined by the slope of the semi-logarithmic plot of the concentration-time profile.
recorded_metric: half-life at 1 μM

Below, each entry is followed by its recorded half-life at 1 μM result.
N#Cc1ccc2c(c1)[C@@H]1CCCN(C(=O)c3ccc4[nH]cnc4c3)[C@@H]1C2 [Example 108]	> 1.5 h
O=C(c1ccc2[nH]cnc2c1)N1CCC[C@@H]2c3ccccc3C[C@@H]21 (relative stereo) [Example 93]	> 1.5 h
Cc1cc(C(=O)N2CCC[C@@H]3c4cc(C#N)ccc4C[C@@H]32)cc2nc[nH]c12 [Example 152]	> 1.5 h
Cc1cc2[nH]cnc2cc1C(=O)N1CCC[C@@H]2c3cc(C#N)ccc3C[C@@H]21 [Example 153]	> 1.5 h
N#Cc1ccc2c(c1)[C@H]1CCCN(C(=O)c3ccc4[nH]cnc4c3)[C@H]1CC2 (relative stereo) [Example 91]	> 1.5 h

Incoming: Quickly give me recorded half-life at 1 μM for C[C@]12CCCN(C(=O)c3ccc4[nH]cnc4c3)[C@H]1CCc1ccccc12 (relative stereo) [Example 10]
Outgoing: > 0.75 h

Incoming: Please report the measured half-life at 1 μM for NC(=O)c1ccc2c(c1)CC[C@H]1[C@@H]2CCCN1C(=O)c1ccc2[nH]cnc2c1 (relative stereo) [Example 37]
Outgoing: > 1.5 h

Incoming: Item CC[C@]12CCCN(C(=O)c3ccc4[nH]cnc4c3)[C@@H]1CCc1ccccc12 (relative stereo) [Example 105] : provide half-life at 1 μM
Outgoing: 0.367 h

Incoming: Look up half-life at 1 μM of N#Cc1ccc2c(c1)C[C@H]1[C@@H]2CCCN1C(=O)c1ccc2[nH]cnc2c1 [Example 148] and report it.
Outgoing: > 1.5 h

====

half-life at 1 μM reference
test_details: Metabolic stability in pooled liver microsomes
Type: in vitro ADME, human
condition_set: human, pooled liver microsomes, pH 7.6, human liver microsomes, 37° C., test compound 1 μM, microsomal protein 0.5 mg/mL, NADPH 1 mM; read-out: Stability in human liver microsomes, t1/2
Procedure: The metabolic degradation of the test compound is assayed at 37° C. with pooled liver microsomes from various species. The final incubation volume of 100 μl per time point contains TRIS buffer pH 7.6 at room temperature (0.1 M), magnesium chloride (5 mM), microsomal protein (0.5 mg/mL) and the test compound at a final concentration of 1 μM. […] The half-life is determined by the slope of the semi-logarithmic plot of the concentration-time profile.

C[C@H]1CCN(C(=O)c2ccc3[nH]cnc3c2)[C@H]2Cc3ccccc3[C@@H]12 [Example 146]	> 45 min
N#Cc1ccc2c(c1)[C@H]1CCCN(C(=O)c3ccc4[nH]cnc4c3)[C@H]1C2 [Example 107]	> 90 min
N#Cc1ccc2c(c1)[C@H]1CCCN(C(=O)c3ccc4[nH]cnc4c3)[C@H]1C2 (relative stereo) [Example 106]	> 90 min
C#Cc1ccc2c(c1)[C@H]1CCCN(C(=O)c3ccc4[nH]cnc4c3)[C@H]1C2 (relative stereo) [Example 155]	28 min
O=C(c1ccc2[nH]cnc2c1)N1CCC[C@@H]2c3cc(F)cc(F)c3CC[C@@H]21 (relative stereo) [Example 20]	> 90 min

Incoming: Quote half-life at 1 μM reported for N#Cc1ccc2c(c1)CC[C@H]1[C@@H]2CCCN1C(=O)c1ccc2[nH]cnc2c1 (relative stereo) [Example 42] please.
Outgoing: > 90 min

Incoming: Identify measured half-life at 1 μM associated with C[C@]12CCCN(C(=O)c3ccc4[nH]cnc4c3)[C@@H]1CCc1ccccc12 (relative stereo) [Example 11]
Outgoing: 38 min
